MEASURED_ON: BRG1 (Homo sapiens)
Construct: either BRM primary antibody (Cell signaling Cat #11966) or BRG primary antibody (Abcam, ab 110641); endogenous in cells; host or cells: SW1573
Sequence (P51532 whole entry): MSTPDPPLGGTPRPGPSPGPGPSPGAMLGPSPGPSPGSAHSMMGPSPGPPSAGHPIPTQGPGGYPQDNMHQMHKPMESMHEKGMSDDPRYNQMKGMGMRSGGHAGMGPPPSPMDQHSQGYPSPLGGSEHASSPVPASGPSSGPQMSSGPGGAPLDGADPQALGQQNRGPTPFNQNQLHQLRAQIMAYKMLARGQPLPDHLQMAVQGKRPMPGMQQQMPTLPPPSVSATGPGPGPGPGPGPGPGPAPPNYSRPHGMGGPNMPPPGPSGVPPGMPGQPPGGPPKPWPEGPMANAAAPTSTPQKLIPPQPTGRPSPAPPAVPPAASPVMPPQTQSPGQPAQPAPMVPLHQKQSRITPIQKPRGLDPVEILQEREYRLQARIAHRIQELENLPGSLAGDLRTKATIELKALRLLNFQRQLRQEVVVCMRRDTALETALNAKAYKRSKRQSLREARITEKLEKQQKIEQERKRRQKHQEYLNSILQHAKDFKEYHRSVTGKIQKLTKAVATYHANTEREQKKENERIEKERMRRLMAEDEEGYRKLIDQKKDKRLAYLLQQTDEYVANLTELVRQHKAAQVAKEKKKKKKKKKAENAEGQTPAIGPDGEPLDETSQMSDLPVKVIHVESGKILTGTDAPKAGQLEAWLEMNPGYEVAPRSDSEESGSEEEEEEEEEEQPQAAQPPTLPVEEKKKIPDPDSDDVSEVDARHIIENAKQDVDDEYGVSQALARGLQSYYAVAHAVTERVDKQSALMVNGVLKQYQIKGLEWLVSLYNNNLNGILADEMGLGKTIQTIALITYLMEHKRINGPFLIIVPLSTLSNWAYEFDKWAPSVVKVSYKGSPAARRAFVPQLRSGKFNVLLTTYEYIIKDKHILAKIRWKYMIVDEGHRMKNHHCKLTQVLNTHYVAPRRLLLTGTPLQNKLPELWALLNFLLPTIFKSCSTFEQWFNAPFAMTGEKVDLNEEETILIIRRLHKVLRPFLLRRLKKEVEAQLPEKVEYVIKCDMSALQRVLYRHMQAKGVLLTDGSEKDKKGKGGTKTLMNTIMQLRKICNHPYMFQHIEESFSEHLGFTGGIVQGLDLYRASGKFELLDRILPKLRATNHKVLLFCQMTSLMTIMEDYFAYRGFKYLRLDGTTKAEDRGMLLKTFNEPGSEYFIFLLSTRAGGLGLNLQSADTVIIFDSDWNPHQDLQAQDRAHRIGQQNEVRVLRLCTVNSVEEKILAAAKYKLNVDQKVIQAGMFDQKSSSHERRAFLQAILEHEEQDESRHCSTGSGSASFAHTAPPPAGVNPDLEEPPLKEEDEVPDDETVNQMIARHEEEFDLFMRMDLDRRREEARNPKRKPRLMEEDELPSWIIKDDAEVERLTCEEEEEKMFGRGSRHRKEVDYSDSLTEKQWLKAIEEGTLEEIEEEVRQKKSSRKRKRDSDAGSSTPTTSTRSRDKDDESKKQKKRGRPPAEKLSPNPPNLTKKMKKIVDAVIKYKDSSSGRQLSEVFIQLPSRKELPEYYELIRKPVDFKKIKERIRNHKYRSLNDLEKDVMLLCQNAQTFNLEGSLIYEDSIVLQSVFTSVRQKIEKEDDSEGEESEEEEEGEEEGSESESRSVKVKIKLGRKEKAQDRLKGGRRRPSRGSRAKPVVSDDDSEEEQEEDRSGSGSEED
PROCEDURE_SUMMARY: Immunofluorescence assay for BRG1 degradation in SW1573 cells
Format: cell-based
COND: SW1573, 20 h, 20 hours incubation, normalized to a known degrader control, read-out: BRG1 IF Degradation Sinf (%)
Measured Dmax, listed per entry for reference.

Known Dmax results, listed for orientation:
COMPOUND	Dmax
Nc1nnc(-c2ccccc2O)cc1N1CC2CCC(C1)N2c1ccnc(C#CCN2CCC3CC32)c1 (stereo not drawn)	30 to 70%
Nc1nnc(-c2ccccc2O)cc1N1CC2CCC(C1)N2c1ccnc(C#CC2CCNCC2)c1	30 to 70%
Nc1nnc(-c2ccccc2O)cc1N1CC2CCC(C1)N2c1ccnc(C#CCN2CC(C3CCOC3)C2)c1 (stereo not drawn)	30 to 70%
Nc1nnc(-c2ccccc2O)cc1N1CC2CCC(C1)N2c1ccnc(C#CCCN2CCCCCC2)c1	71 to 120%
CO[C@H]1CCN(CC#Cc2cc(N3C4CCC3CN(c3cc(-c5ccccc5O)nnc3N)C4)ccn2)C1	30 to 70%
CC1CCCCCN1CC#Cc1cc(N2C3CCC2CN(c2cc(-c4ccccc4O)nnc2N)C3)ccn1 (stereo not drawn)	30 to 70%
Oc1ccccc1-c1cc2c(nn1)NC[C@H]1CN(c3ccnc(C#CCN4CCCCCC4)c3)CCN21 (single isomer, unassigned)	71 to 120%
CC1(O)CCCN(CC#Cc2cc(N3C4CCC3CN(c3cc(-c5ccccc5O)nnc3N)C4)ccn2)CC1 (stereo not drawn)	30 to 70%

Data point: Nc1nnc(-c2ccccc2O)cc1N1CC2CCC(C1)N2c1ccnc(C#CCN2CC3CCOCC3C2)c1 (stereo not drawn) ; Dmax = 30 to 70%

Documented Dmax of NCCCc1cc(N2C3CCC2CN(c2cc(-c4ccccc4O)nnc2N)C3)ccn1 : 30 to 70%

Dmax recorded for this compound, Nc1nnc(-c2ccccc2O)cc1N1CC2CCC(C1)N2c1ccnc(C#CCN2C[C@H]3OCC[C@H]32)c1 , is 30 to 70%

The reported Dmax of the compound Nc1nnc(-c2ccccc2O)cc1N1CC2CCC(C1)N2c1ccnc(C#CCN2C3CCC(C3)C2CO)c1 (stereo not drawn) was 30 to 70%

get_value(item= C[C@H]1CCN(CC#Cc2cc(N3C4CCC3CN(c3cc(-c5ccccc5O)nnc3N)C4)ccn2)C1 , readout=Dmax) returns 30 to 70%

====

MEASURED_ON: BRM (Homo sapiens, UniProt P51531)
Sequence (P51531 whole entry): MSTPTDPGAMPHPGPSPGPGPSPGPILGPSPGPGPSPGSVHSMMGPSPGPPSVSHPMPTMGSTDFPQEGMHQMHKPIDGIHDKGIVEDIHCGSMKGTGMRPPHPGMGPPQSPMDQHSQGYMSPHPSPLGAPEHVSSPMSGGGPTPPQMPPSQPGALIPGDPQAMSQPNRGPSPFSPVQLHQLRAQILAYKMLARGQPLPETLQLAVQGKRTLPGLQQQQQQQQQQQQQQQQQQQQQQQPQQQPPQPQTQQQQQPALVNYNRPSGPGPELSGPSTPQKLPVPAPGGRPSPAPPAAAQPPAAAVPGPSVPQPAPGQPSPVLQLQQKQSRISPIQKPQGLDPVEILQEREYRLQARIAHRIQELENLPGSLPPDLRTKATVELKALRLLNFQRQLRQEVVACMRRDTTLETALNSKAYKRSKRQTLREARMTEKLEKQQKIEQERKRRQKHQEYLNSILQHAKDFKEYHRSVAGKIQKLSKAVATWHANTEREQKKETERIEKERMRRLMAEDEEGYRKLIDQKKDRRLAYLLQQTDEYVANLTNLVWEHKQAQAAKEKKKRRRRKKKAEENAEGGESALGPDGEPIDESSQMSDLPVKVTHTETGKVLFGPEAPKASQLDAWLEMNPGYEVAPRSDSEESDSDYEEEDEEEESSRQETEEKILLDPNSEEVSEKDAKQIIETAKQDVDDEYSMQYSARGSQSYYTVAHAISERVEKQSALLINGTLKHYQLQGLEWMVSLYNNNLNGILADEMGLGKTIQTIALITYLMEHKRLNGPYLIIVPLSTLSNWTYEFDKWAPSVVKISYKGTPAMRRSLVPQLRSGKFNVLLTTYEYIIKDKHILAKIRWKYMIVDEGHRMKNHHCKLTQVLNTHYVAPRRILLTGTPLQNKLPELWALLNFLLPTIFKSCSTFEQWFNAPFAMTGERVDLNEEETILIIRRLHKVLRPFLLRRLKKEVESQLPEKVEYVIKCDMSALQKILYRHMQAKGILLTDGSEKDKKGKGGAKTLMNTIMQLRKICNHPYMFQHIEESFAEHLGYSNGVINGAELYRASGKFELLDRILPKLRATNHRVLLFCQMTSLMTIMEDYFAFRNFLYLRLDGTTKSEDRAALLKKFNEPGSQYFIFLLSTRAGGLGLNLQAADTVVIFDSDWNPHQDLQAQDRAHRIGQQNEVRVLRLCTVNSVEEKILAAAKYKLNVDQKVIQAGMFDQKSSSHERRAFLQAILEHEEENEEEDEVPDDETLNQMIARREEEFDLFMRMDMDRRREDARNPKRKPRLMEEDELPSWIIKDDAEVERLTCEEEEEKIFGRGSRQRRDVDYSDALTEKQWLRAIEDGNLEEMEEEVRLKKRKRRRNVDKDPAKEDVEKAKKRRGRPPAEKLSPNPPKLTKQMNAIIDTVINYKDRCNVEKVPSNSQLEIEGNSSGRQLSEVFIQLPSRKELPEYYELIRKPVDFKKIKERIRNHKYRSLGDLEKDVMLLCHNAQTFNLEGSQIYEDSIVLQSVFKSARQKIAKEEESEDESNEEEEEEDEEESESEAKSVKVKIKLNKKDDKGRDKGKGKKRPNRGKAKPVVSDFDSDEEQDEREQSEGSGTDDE
PROCEDURE_SUMMARY: Immunofluorescence assay for BRM degradation in SW1573 cells
Assay type: cell-based
Parameters: treated overnight at 4° C. with either BRM primary antibody (Cell signaling Cat #11966) or BRG primary antibody; endogenous in cells; host or cells: SW1573
COND: 20 hours incubation, immunofluorescence mean nuclear signal, read-out: BRM IF Degradation IC50
Reported values of DC50 for individual entries

Sample records with DC50:
COMPOUND	MEASURE	VALUE_MEASURED
Nc1nnc(-c2ccccc2O)cc1N1CC2CCC(C1)N2c1ccnc(C#CCN2CCC3OCCC3C2)c1 (stereo not drawn) [Compound 145]	DC50	< 10 nM
Nc1nnc(-c2ccccc2O)cc1N1CC2CCC(C1)N2c1ccnc(C#CCN2CCC(CO)CC2)c1 [Compound 45]	DC50	10 to 100 nM
Nc1nnc(-c2ccccc2O)cc1N1CC2CCC(C1)N2c1ccnc(C#CC2CCN2)c1 (stereo not drawn) [Compound 17]	DC50	10 to 100 nM
CC1CN(CC#Cc2cc(N3C4CCC3CN(c3cc(-c5ccccc5O)nnc3N)C4)ccn2)CCC(F)(F)C1 (stereo not drawn) [Compound 212]	DC50	< 10 nM

DC50 reading for Nc1nnc(-c2ccccc2O)cc1N1CC2CCC(C1)N2c1ccnc(C#CCN2CCC3(C2)CC3(F)F)c1 (stereo not drawn) [Compound 84] : < 10 nM

Kindly note the recorded DC50 for Nc1nnc(-c2ccccc2O)cc1N1CC2CCC(C1)N2c1ccnc(C#CCN2Cc3cn[nH]c3C2)c1 [Compound 149] , which is 10 to 100 nM

DC50 for CC1(CO)CN(CC#Cc2cc(N3C4CCC3CN(c3cc(-c5ccccc5O)nnc3N)C4)ccn2)C1 [Compound 170] is 10 to 100 nM

Per the records, this compound ( Nc1nnc(-c2ccccc2O)cc1N1CC2CCC(C1)N2c1ccnc(C#CCN2CCCC(N)C2)c1 (stereo not drawn) [Compound 31] ) has DC50 equal to > 100 nM

Measured DC50, Nc1nnc(-c2ccccc2O)cc1N1CC2CCC(C1)N2c1ccnc(C#CCN2CC3(CC(O)C3)C2)c1 [Compound 185] : > 100 nM

====

// values below are reported DC50
MEASURED_ON: BRM (Homo sapiens, UniProt P51531)
PROCEDURE_SUMMARY: Immunofluorescence assay for BRM degradation in SW1573 cells
Assay type: cell-based
Design: treated overnight at 4° C. with either BRM primary antibody (Cell signaling Cat #11966) or BRG primary antibody; endogenous in cells; host or cells: SW1573
COND: 20 hours incubation, immunofluorescence mean nuclear signal, read-out: BRM IF Degradation IC50

Worked cases, DC50 given:
COMPOUND	MEASURED_ON	DC50
Nc1nnc(-c2ccccc2O)cc1N1CC2CCC(C1)N2c1ccnc(C#CCN2CC(N3CCOCC3)C2)c1	BRM (Homo sapiens, UniProt P51531)	10 to 100 nM
Nc1nnc(-c2ccccc2O)cc1N1CC2CCC(C1)N2c1ccnc(C#CCC2CCCN2)c1 (stereo not drawn)	BRM (Homo sapiens, UniProt P51531)	10 to 100 nM
CC1CCN(CC#Cc2cc(N3C4CCC3CN(c3cc(-c5ccccc5O)nnc3N)C4)ccn2)CCC1=O (stereo not drawn)	BRM (Homo sapiens, UniProt P51531)	< 10 nM
Nc1nnc(-c2ccccc2O)cc1N1CC2CCC(C1)N2c1ccnc(C#CCN2CC(O)C2)c1 [Compound 168]	BRM (Homo sapiens, UniProt P51531)	10 to 100 nM
Nc1nnc(-c2ccccc2O)cc1N1CC2CCC(C1)N2c1ccnc(C#CCN2CCCCC(F)C2)c1 (stereo not drawn)	BRM (Homo sapiens, UniProt P51531)	< 10 nM

Given item Nc1nnc(-c2ccccc2O)cc1N1CC2CCC(C1)N2c1ccnc(C#CCN2CCC3CC2CO3)c1 (stereo not drawn) , the value recorded as its DC50 is < 10 nM

// DC50 lookup, compound = Nc1nnc(-c2ccccc2O)cc1N1CC2CCC(C1)N2c1ccnc(C#CCN2CC3COCC(C2)C3O)c1 (stereo not drawn) , result: > 100 nM

Sample Nc1nnc(-c2ccccc2O)cc1N1CC2CCC(C1)N2c1ccnc(C#CCN2CC(c3ccccc3)C2)c1 ; DC50 observed: 10 to 100 nM

DC50 recorded for this compound, Nc1nnc(-c2ccccc2O)cc1N1CC2CCC(C1)N2c1ccnc(C#CCN2C[C@H]3CCO[C@H]3C2)c1 , is 10 to 100 nM

Reported DC50 of Nc1nnc(-c2ccccc2O)cc1N1CC2CCC(C1)N2c1ccnc(C#CCN2CCC(N3CCOCC3)C2)c1 (stereo not drawn) : 10 to 100 nM

DC50 measured on Nc1nnc(-c2ccccc2O)cc1N1CC2CCC(C1)N2c1ccnc(C#CCN2CCCCC(F)(F)C2)c1 = 10 to 100 nM

response.value for Nc1nnc(-c2ccccc2O)cc1N1CC2CCC(C1)N2c1ccnc(C#CCN2CC3(CC3)C2)c1 (field: DC50) = < 10 nM

In plain terms, C[C@@H](N)C#Cc1cc(N2C3CCC2CN(c2cc(-c4ccccc4O)nnc2N)C3)ccn1 has a documented DC50 of < 10 nM

Sure, the documented DC50 for Nc1nnc(-c2ccccc2O)cc1N1CC2CCC(C1)N2c1ccnc(C#CCN2CCOCC2)c1 is 10 to 100 nM

DC50 in this record for CN1C[C@@H]2CN(CC#Cc3cc(N4C5CCC4CN(c4cc(-c6ccccc6O)nnc4N)C5)ccn3)C[C@@H]2C1 : > 100 nM

====

Below is a list of entries, each paired with its recorded DC50 value.
MEASURED_ON: BRM (Homo sapiens)
PROCEDURE_SUMMARY: Immunofluorescence assay for BRM degradation in SW1573 cells
Assay type: cell-based
Design: treated overnight at 4° C. with either BRM primary antibody (Cell signaling Cat #11966) or BRG primary antibody; endogenous in cells; host or cells: SW1573
COND: 20 hours incubation, immunofluorescence mean nuclear signal, read-out: BRM IF Degradation IC50

Sample records with DC50:
COMPOUND	DC50
Nc1nnc(-c2ccccc2O)cc1N1CC2CCC(C1)N2c1ccnc(C#CC2CCNC2)c1 (stereo not shown) [Compound 25]	> 100 nM
CC1(C)CCCN(CC#Cc2cc(N3C4CCC3CN(c3cc(-c5ccccc5O)nnc3N)C4)ccn2)CC1 [Compound 205]	< 10 nM
Nc1nnc(-c2ccccc2O)cc1N1CC2CCC(C1)N2c1ccnc(C#CCN2CC3CC3(O)C2)c1 (stereo not shown) [Compound 105]	10 to 100 nM
NCC(=O)NCCCc1cc(N2C3CCC2CN(c2cc(-c4ccccc4O)nnc2N)C3)ccn1 [Compound 32]	10 to 100 nM
Nc1nnc(-c2ccccc2O)cc1N1CC2CCC(C1)N2c1ccnc(C#CCN2CCCC(O)C2)c1 (stereo not shown) [Compound 50]	10 to 100 nM

Entry Nc1nnc(-c2ccccc2O)cc1N1CC2CCC(C1)N2c1ccnc(C#CCN2CC3CC3C2)c1 (stereo not shown) [Compound 68] — recorded DC50 = < 10 nM

Reported DC50 ( CC(C)(N)C#Cc1cc(N2C3CCC2CN(c2cc(-c4ccccc4O)nnc2N)C3)ccn1 [Compound 36] ) = 10 to 100 nM

get_value(item= Nc1nnc(-c2ccccc2O)cc1N1CC2CCC(C1)N2c1ccnc(C#CCN2CC3(CCOCC3)C2)c1 [Compound 49] , readout=DC50) returns < 10 nM

The reported value for CC1COCCN1CC#Cc1cc(N2C3CCC2CN(c2cc(-c4ccccc4O)nnc2N)C3)ccn1 (stereo not shown) [Compound 57] in terms of DC50 is 10 to 100 nM

DC50 recorded for this compound, Nc1nnc(-c2ccccc2O)cc1N1CC2CCC(C1)N2c1ccnc(C#CCN2CCOC3(CC3)C2)c1 [Compound 124] , is < 10 nM

The compound listed as Nc1nnc(-c2ccccc2O)cc1N1CC2CCC(C1)N2c1ccnc(C#CCN2CCc3ccccc3CC2)c1 [Compound 202] shows DC50 equal to 10 to 100 nM

DC50 for Nc1nnc(-c2ccccc2O)cc1N1CC2CCC(C1)N2c1ccnc(C#CCOC2CCCNC2)c1 (stereo not shown) [Compound 12] is 10 to 100 nM

CN1CCCN(CC#Cc2cc(N3C4CCC3CN(c3cc(-c5ccccc5O)nnc3N)C4)ccn2)CC1 [Compound 47] yielded DC50 of > 100 nM

Value of measured DC50 for the entry Nc1nnc(-c2ccccc2O)cc1N1CC2CCC(C1)N2c1ccnc(C#CCN2CC3(CCCOC3)C2)c1 [Compound 175] : < 10 nM

Value of DC50 reported for the compound CC1CN(CC#Cc2cc(N3C4CCC3CN(c3cc(-c5ccccc5O)nnc3N)C4)ccn2)CCCO1 (stereo not shown) [Compound 42] is 10 to 100 nM

Memo: Nc1nnc(-c2ccccc2O)cc1N1CC2CCC(C1)N2c1ccnc(C#CCN2CC3CCCC32)c1 (stereo not shown) [Compound 162] , reported DC50: < 10 nM
